target: Grb2 SH2 (UniProt P62993); assay: SH2 binding enrichment of the phosphorylated peptide, bacterial display (enrichment ratio); higher = better substrate or ligand; peptides without Tyr show the background
Sequence (P62993 whole entry, looked up): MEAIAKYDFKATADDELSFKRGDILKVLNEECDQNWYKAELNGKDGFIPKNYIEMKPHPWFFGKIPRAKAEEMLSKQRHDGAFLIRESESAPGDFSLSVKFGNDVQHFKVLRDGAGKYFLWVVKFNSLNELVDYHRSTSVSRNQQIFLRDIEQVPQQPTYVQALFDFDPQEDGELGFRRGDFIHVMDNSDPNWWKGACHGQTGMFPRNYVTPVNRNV
Binned SH2 binding enrichment; ranges: bottom range = under 0.8, center range = from 0.8 up to 1, top range = 1 and over

The following sequences have reported results that may help.
FGSGNYNVFGN [HNRNPA2B1_Y300_D302V_YF]
bottom range
EILTQYEAMAS [GFAP_Y242_R239L]
center range
DLSEVYKPCRK [CCDC93_Y176_R179C]
center range
EFDRLYEEFTR [PIK3R1_Y467_YF]
center range

Data request: Which bin, given its SH2 binding enrichment, does QEIATYRPLLE [KRT14_Y415_R417P] occupy?
Data returned: bottom range

Data request: Returns: class label. Input: RPSRWYQFPVA [ANOS1_Y259_R262P]
Data returned: top range

Data request: Where would PATYTYDEYKK [COL8A2_Y648] land among the classes by reported SH2 binding enrichment?
Data returned: bottom range

Data request: Exercise: read the entry IWGKKYPTCNS [PTPRZ1_Y53_N48I] and state which class it falls under.
Data returned: top range

Data request: Assign a category based on measured SH2 binding enrichment for LASSEYPVRRR [GALK1_Y236] and give only the class name.
Data returned: bottom range

Data request: Bin? HCHEGYVLHGA [SVEP1_Y2921_I2922V]
Data returned: center range

Data request: Into which bin does this sequence go? QLCVSYPGGFT [PROS1_Y259_N258S_YF]
Data returned: bottom range

###

target: Grb2 SH2 (UniProt P62993); experiment: SH2 binding enrichment of the phosphorylated peptide, bacterial display (enrichment ratio); higher = better substrate or ligand; peptides without Tyr show the background
Use rule met when the recorded SH2 binding enrichment is no lower than 0.8; use rule not met when it is lower.

// below: answered sequences
QELRRYLKSSV [MICA_Y194_G198S]
rule not met
DVCKNYAKAKD [ALB_Y343_E345K]
rule met
ALKKPYSVLFK [RPF2_Y59_G60S_YF]
rule met
PLQSEYSSIST [ITGB4_Y1760_T1764S]
rule met
ESLSSYWESAK [APOC2_Y47]
rule met

Alright, here's another sequence for you.
Data request: Answer whether SH2 binding enrichment of HYGNNYRDVLQ [MACC1_Y803] is greater than or equal to 0.8.
Data returned: rule not met

###

system: c-Src; assay: phosphorylation enrichment, bacterial display (enrichment ratio); higher = better substrate or ligand; peptides without Tyr show the background;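 also: 11-residue human phosphosite peptides and single-mutation variants displayed on the E. coli surface, counted by deep sequencing, each peptide's frequency after selection divided by its frequency in the unselected input library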;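 also: frequency after pTyr selection over input frequency; kinase dosed for 20-30% of maximal phosphorylation in three min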
phosphorylation enrichment by entry:
Please give only the number in your answer, with no unit.

LVPAWYIGFLC [KCNQ2_Y237_T234P]
0.51
EILTQYEAMAS [GFAP_Y242_R239L]
0.503

Consider now this further sequence.
Data request: Lab note: c-Src assay, enter phosphorylation enrichment for KVPRHYDDPGK [FOXG1_Y246] here
Data returned: 0.505

###

target: SHP2-C SH2; assay: SH2 binding enrichment of the phosphorylated peptide, bacterial display (enrichment ratio); higher = better substrate or ligand; peptides without Tyr show the background
measured.property: SH2 binding enrichment
Form field (numeric): enter value without unit.

Below, 5 sequences whose answers are already recorded.
LARHMYDKEFF [MET_Y1230_D1228H_YF]
0.65
FLTQHYDAKPQ [ANG_Y38]
0.64
MKKKTYAMGGG [GAN_Y424_I423T]
0.233
QRRLVYYEGGA [RYR1_Y245]
0.803
FPLELYERVRI [PRKCG_Y312_M317I_YF]
0.775

Data request: Specify reported SH2 binding enrichment for the sequence shown: DEYLEYRRIVG [FAM221A_Y20]
Data returned: 0.762
